system: DMS-273; test: NCI tumour cell line growth inhibition, 48 h
Activity calls are given as the source filed them. Cut-off read from the data, not from the text of the source: active = GI50 up to about 1.1 µM and inactive = higher.

# Compound, GI50
records = [
    ("CN(C)Cc1cc(/C(=C(\\C#N)c2ccccc2)c2ccc(O)cc2)ccc1O", "17.4 µM (inactive)"),
    ("CCC/C(=N\\NC(=O)c1cc2ccccc2cc1O)C(CC)C(=O)CCC(=O)N(Cc1ccccc1)Cc1ccccc1 (stereo not given)", "18.2 µM (inactive)"),
    ("CCOC(=O)Cn1c(=O)[nH]c(=O)c2c1ncn2Cc1ccccc1", "> 100 µM (inactive)"),
    ("O=C(Nc1ccc([N+](=O)[O-])cc1[N+](=O)[O-])C(=O)C(C(=O)c1ccc(Cl)c(Cl)c1)C1OC(=O)c2ccccc21 (stereo not given)", "31 µM (inactive)"),
    ("COC(=O)C(C#N)C1NC(=O)c2ccccc21 (stereo not given)", "> 100 µM (inactive)"),
]

----------
system: KM-20L2; assay: NCI tumour cell line growth inhibition, 48 h
Activity calls are given as the source filed them. Rule as the data show it: active = GI50 up to about 1.1 µM and inactive = higher.
Outcomes: active, inactive

# Compound, Target or system, Label
data = [
    ("CN(C)CCC1(C2=CCCC2)CC/C(=C\\c2ccccc2Cl)C1=O (configuration not stated)", "KM-20L2", "inactive"),
    ("Cn1cc(C(=O)C[n+]2ccccc2)c2ccccc21", "KM-20L2", "inactive"),
    ("N#CN1CC[C@@H]2CC3(CCC2C1)OCCO3 (some centres not stated)", "KM-20L2", "inactive"),
    ("C=C1C(OC(C)=O)CC(OC(C)=O)C2(C)C(OC(C)=O)C(OC(C)=O)C3=C(C)C(OC(=O)/C=C/c4ccccc4)CC(C(OC(C)=O)C12)C3(C)C (configuration not stated)", "KM-20L2", "inactive"),
    ("Cc1cccc(-c2cc(=O)c3cc(C)c(C)c(C(=O)O)c3o2)c1", "KM-20L2", "inactive"),
    ("COc1ccc(/C(Cl)=C(\\C=O)c2ccc(Cl)cc2)cc1OC", "KM-20L2", "inactive"),
    ("C=C1[C@@H](C)[C@H]2[C@H](Cc3ccccc3)NC(=O)[C@]23OC(=O)/C=C/[C@H](O)CCC[C@@H](C)C/C=C/[C@H]3[C@@H]1O", "KM-20L2", "inactive"),
    ("COc1cc2ccc1-c1cc(ccc1O)CC1c3cc4c(cc3CCN1C)Oc1c(OC)cc3c(c1O4)C(C2)N(C)CC3 (configuration not stated)", "KM-20L2", "inactive"),
    ("O=C1NC(=O)c2c1n(Cc1ccccc1)c(=O)n2Cc1ccccc1", "KM-20L2", "inactive"),
    ("C=C(C[N+](C)(C)C)N/N=C/c1oc(-c2ccc(OC)c(OC)c2)c(-c2ccc(OC)c(OC)c2)c1[N+](=O)[O-]", "KM-20L2", "inactive"),
    ("[O-][Cl+3]([O-])([O-])O.c1ccc(/N=c2\\snc(-c3ccccc3)s2)cc1", "KM-20L2", "inactive"),
    ("COC(=O)C(=NNc1ccccc1[N+](=O)[O-])C(=O)OC", "KM-20L2", "inactive"),
    ("CC12CC(=O)NN=C1c1ccccc1C2 (configuration not stated)", "KM-20L2", "inactive"),
    ("C=C1C(=O)O[C@H]2C1[C@H](OC(=O)/C(C)=C\\COC(C)=O)C[C@]1(CO1)[C@@H]1[C@H](O)[C@H]3O[C@@]3(C)[C@@H]12 (some centres not stated)", "KM-20L2", "inactive"),
    ("CCc1ccccc1NC(=O)c1cccc([N+](=O)[O-])c1O", "KM-20L2", "inactive"),
    ("O=C(CC(=O)c1ccc([N+](=O)[O-])cc1)C(=O)Nc1nccs1", "KM-20L2", "inactive"),
    ("CN(C)CC1(C)CC/C(=C\\c2ccc(Cl)cc2)C1=O (configuration not stated)", "KM-20L2", "inactive"),
    ("COC(=O)/C(=N/NC(C)(C)C)C(C(=O)OC)C(=O)C(=O)Nc1nc2ccc([N+](=O)[O-])cc2s1 (configuration not stated)", "KM-20L2", "inactive"),
    ("C=C1C(=O)OC2/C=C(\\C)CC(O)/C=C(/CO)CC(OC(=O)/C(C)=C/C)C12 (configuration not stated)", "KM-20L2", "inactive"),
    ("O=c1cc(-c2ccccc2)oc2cc(OCCCOc3ccc4c(=O)cc(-c5ccccc5)oc4c3)ccc12", "KM-20L2", "inactive"),
    ("O=C(c1ccccc1)C1OC12C(=O)Nc1c(Cl)cc(Cl)cc12 (configuration not stated)", "KM-20L2", "inactive"),
    ("O=c1[nH]cnc2[nH]nnc12", "KM-20L2", "inactive"),
    ("Cc1cccc(-n2c(=S)[nH]c3c(sc(=O)n3-c3ccccc3C)c2=O)c1", "KM-20L2", "inactive"),
    ("CC(=O)/C=C\\C(=O)NNS(=O)(=O)c1ccc(C)cc1", "KM-20L2", "inactive"),
    ("O=C(N/N=C(\\c1nc2ccc(Cl)cc2nc1O)C(O)c1ccccc1Cl)c1ccncc1 (configuration not stated)", "KM-20L2", "inactive"),
    ("COc1ccc2[nH]c3c4c(ccc3c2c1)C(=O)C=CC4=O", "KM-20L2", "inactive"),
    ("N=C(N)NS(=O)(=O)c1ccc(NC(=O)c2cccc3cc4ccccc4nc23)cc1", "KM-20L2", "inactive"),
    ("CN(C)Cc1cc(/C(=C(\\C#N)c2ccccc2)c2ccc(O)cc2)ccc1O", "KM-20L2", "inactive"),
    ("COC(=O)C1C(C(=O)OC)C2C(=O)C3C(C(=O)OC)C(C(=O)OC)C3C(=O)C12 (configuration not stated)", "KM-20L2", "inactive"),
    ("COc1ccc(C2C(C(=O)O)=C(CO)Oc3cc4c(cc32)OCO4)c(OC)c1 (configuration not stated)", "KM-20L2", "inactive"),
    ("CCOC(=O)c1[nH]c(CN(C)Cc2[nH]c(C(=O)OCC)c(C)c2C(=O)OCc2ccccc2)c(C(=O)OCc2ccccc2)c1C", "KM-20L2", "inactive"),
    ("COc1ccc(CC2C(=O)NC(C)C(=O)N(C)C3C(=O)N(C)C(Cc4ccc(O)c(c4)Oc4ccc(cc4)C3O)C(=O)NC(C)C(=O)NC(C)C(=O)N2C)cc1 (configuration not stated)", "KM-20L2", "active"),
]
